Data origin, for the record: ChEMBL document CHEMBL1201862

- Test system: U-251
- experiment_description: NCI tumour cell line growth inhibition, 48 h
The source made the active and inactive calls. Rule as the data show it: active = GI50 up to about 1.1 µM and inactive = higher.

{"compound": "O=C1Nc2ccc(S(=O)(=O)O)cc2/C1=C1/Nc2ccc(Br)cc2C1=O", "GI50": "> 100 µM (inactive)"}
{"compound": "CN(C)c1ccc(/C=C2\\C=Cc3ccccc32)cc1", "GI50": "55 µM (inactive)"}
{"compound": "CC(NC(=O)C(N)Cc1ccc(O)cn1)C(=O)O (stereo unspecified)", "GI50": "> 100 µM (inactive)"}
{"compound": "COc1ccc(N2C(=O)C3c4[nH]c5ccc(OC)cc5c4C4CCC(C(C)C)CC4C3C2=O)cc1 (stereo unspecified)", "GI50": "26.4 µM (inactive)"}
{"compound": "COC(=O)C1C(O)C(C)C(O)C(C)/C=C\\C=C(C)C(=O)Nc2c(C)c(OC(C)=O)c3c(c2O)C(=O)C(C)=C2OCOC(=C23)C(C)=CC(C)(O)C(O)C(C)C1O (stereo unspecified)", "GI50": "60.4 µM (inactive)"}
{"compound": "Cc1ccc(O)c(-c2cc(-c3cccc(Br)c3)c(C#N)c(N)n2)c1", "GI50": "17.3 µM (inactive)"}
{"compound": "CCOC(=O)NC(NC(C)CC)(C(F)(F)F)C(F)(F)F (stereo unspecified)", "GI50": "81.5 µM (inactive)"}
{"compound": "COC(=O)CC(c1cn(S(=O)(=O)c2ccc(C)cc2)c2ccccc12)C1C[C@@H](C(=O)OC)N(C(=O)OC(C)(C)C)C1=O (stereo partly specified)", "GI50": "33.9 µM (inactive)"}
{"compound": "Cc1ccc(OCC2OC(n3cnc4nc(Nc5ccc(Cl)c(Cl)c5)nc(Cl)c43)CC2Oc2ccc(C)cc2)cc1 (stereo unspecified)", "GI50": "> 100 µM (inactive)"}
{"compound": "Cc1occc1/C(S)=N\\c1ccc(Cl)c(C(=O)OCC(F)(F)F)c1", "GI50": "19 µM (inactive)"}
{"compound": "CC1=NN(c2ccc(S(=O)(=O)O)cc2)C2(C1)SCC(=O)N2c1nc2ccccc2s1 (stereo unspecified)", "GI50": "> 100 µM (inactive)"}
{"compound": "CCOc1ccc(NC(=O)C(=O)CC(=O)c2sc(NNC(C)=O)nc2C)cc1", "GI50": "> 100 µM (inactive)"}
{"compound": "CCc1nc(N)nc(N)c1-c1ccc2c(c1)nnn2CCc1ccccc1", "GI50": "7.69 µM (inactive)"}
{"compound": "CCOC(=O)C1C2C1C1C(C(=O)OCC)C21 (stereo unspecified)", "GI50": "> 100 µM (inactive)"}
{"compound": "O=C1C(Cl)C(c2ccc(Cl)cc2)N1n1cnc2ccccc2c1=O (stereo unspecified)", "GI50": "> 100 µM (inactive)"}
{"compound": "Cn1cc2ccccc2c1-c1nc(N)nc(F)n1", "GI50": "> 100 µM (inactive)"}
{"compound": "CCC(CCC(C)C1CCC2C3CC=C4CC(OC5OC(CO)C(O)C(O)C5O)CCC4(C)C3CCC12C)C(C)C (stereo unspecified)", "GI50": "> 100 µM (inactive)"}
{"compound": "O=C1NC(c2ccccc2)N=C2Oc3ccccc3C=C12 (stereo unspecified)", "GI50": "4.21 µM (inactive)"}
{"compound": "COc1ccc(OC)c2sc(N3C(=O)/C(=C/c4cccc(Oc5ccccc5)c4)N=C3c3ccccc3)nc12", "GI50": "92 µM (inactive)"}
{"compound": "O=C(O)c1ccc2c(O)c(O)ccc2c1", "GI50": "19.9 µM (inactive)"}
{"compound": "O=C(N/C(=C\\c1ccc(/C=C(\\NC(=O)c2ccccc2)c2nc3cc([N+](=O)[O-])ccc3[nH]2)cc1)c1nc2cc([N+](=O)[O-])ccc2[nH]1)c1ccccc1", "GI50": "54.6 µM (inactive)"}
{"compound": "COc1ccc(/C(=N/Nc2ccccc2)C(c2ccc(OC)cc2)C2OC(=O)c3ccccc32)cc1 (stereo unspecified)", "GI50": "> 100 µM (inactive)"}
{"compound": "Cn1c(=O)c2nc(CCCCC(=O)O)[nH]c2n(C)c1=O", "GI50": "> 100 µM (inactive)"}
{"compound": "CN(C(=O)C1(C(=O)C=[N+]=[N-])CC1)c1ccccc1", "GI50": "> 100 µM (inactive)"}
{"compound": "CC1Cc2c(cc(N)nc2Br)NC1=O (stereo unspecified)", "GI50": "> 100 µM (inactive)"}
{"compound": "COc1ccc(C(NS(=O)(=O)c2ccc(C)cc2)c2c(C(CBr)OC)c3ccccc3n2S(=O)(=O)c2ccccc2)cc1OC (stereo unspecified)", "GI50": "> 100 µM (inactive)"}
{"compound": "CC(C)c1ccc(C(O)(C(=O)O)c2ccc(C(C)C)cc2)cc1", "GI50": "18.2 µM (inactive)"}
{"compound": "COc1cccc(/C=C2\\SC(=S)N(/C=C3\\C(=O)Oc4ccccc4C3=O)C2=O)c1O", "GI50": "31.5 µM (inactive)"}
{"compound": "CC(=O)Nc1nc(Cl)cc(NCC2(CO)CCC2)n1", "GI50": "> 100 µM (inactive)"}
{"compound": "O=C(CCc1nnc2s/c(=C\\c3ccc4c(c3)OCO4)c(=O)n12)Nc1cc(Cl)ccc1Cl", "GI50": "> 100 µM (inactive)"}
{"compound": "CO/N=C(/C(=O)OC)c1ccccc1COc1cccc(C(F)(F)F)c1", "GI50": "36.4 µM (inactive)"}
{"compound": "COc1cccc2c1[C@]1(O)C(O)CCCC21 (stereo partly specified)", "GI50": "> 100 µM (inactive)"}
{"compound": "CN1CCN(C)C1c1cccc(C2N(C)CCN2C)c1", "GI50": "> 100 µM (inactive)"}
{"compound": "Cc1nc2ccccc2c(=O)n1NC(=O)c1ccccn1", "GI50": "> 100 µM (inactive)"}
{"compound": "CCCC/C=C1\\CCC(CN2CCCC2)C1=O (stereo unspecified)", "GI50": "6.75 µM (inactive)"}
{"compound": "CC1=C/C(=N/N2C(=O)/C(=C/c3ccc(Cl)cc3)N=C2c2ccccc2)CC(C)(C)C1", "GI50": "21.5 µM (inactive)"}
{"compound": "N/N=C(\\C(=O)Nc1ccc(Cl)cc1Cl)C(c1cnc2ccccc2n1)[N+](=O)[O-] (stereo unspecified)", "GI50": "> 100 µM (inactive)"}
{"compound": "CCc1n[nH]c(=O)n1/N=C/c1ccccc1O", "GI50": "> 100 µM (inactive)"}
{"compound": "Cc1c(C(=O)/C=C/c2ccccc2[N+](=O)[O-])[n+]([O-])c2ccccc2[n+]1[O-]", "GI50": "15.2 µM (inactive)"}
{"compound": "CC(=O)Nc1oc(C)c(C)c1S(=O)(=O)c1ccc(Cl)cc1", "GI50": "92 µM (inactive)"}
{"compound": "CS/C(=N/C(=O)c1ccccc1Cl)SCCS/C(=N\\C(=O)c1ccccc1Cl)SC", "GI50": "> 100 µM (inactive)"}
